reported_endpoint: IC50 (µM)
Report the value in µM with no unit label.

Send back Estrogen receptor (Homo sapiens) IC50 of O=C(O)CCc1cc(Br)c(OCc2cccc(Br)c2)c(Br)c1 only.
29

###

# system_under_test: Thyroid hormone receptor alpha (Homo sapiens)
# Sequence (P10827 whole entry): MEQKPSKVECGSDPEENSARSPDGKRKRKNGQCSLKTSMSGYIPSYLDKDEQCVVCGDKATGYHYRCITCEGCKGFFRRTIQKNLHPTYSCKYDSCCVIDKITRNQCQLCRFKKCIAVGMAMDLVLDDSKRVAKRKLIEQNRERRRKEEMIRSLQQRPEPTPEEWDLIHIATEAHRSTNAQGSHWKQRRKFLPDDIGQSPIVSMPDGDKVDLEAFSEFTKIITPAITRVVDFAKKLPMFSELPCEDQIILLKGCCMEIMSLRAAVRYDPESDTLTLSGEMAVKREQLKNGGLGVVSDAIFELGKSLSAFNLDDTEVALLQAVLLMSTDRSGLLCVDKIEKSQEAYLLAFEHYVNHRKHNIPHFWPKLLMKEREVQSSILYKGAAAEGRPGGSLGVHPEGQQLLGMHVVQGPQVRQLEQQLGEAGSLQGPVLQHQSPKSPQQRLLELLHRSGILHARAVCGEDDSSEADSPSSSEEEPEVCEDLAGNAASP
# experiment_notes: Antagonist activity at human TR-alpha-1 expressed in CHO cells assessed as TRAF-alpha-1-driven gene transactivation by alkaline phosphatase reporter gene assay
# Format: functional, cell-based
reported_endpoint: IC50 (nM)
# value in nM; strip the unit string

Note down IC50 recorded for O=C(O)CCc1cc(Br)c(OCc2cccc(Br)c2)c(Br)c1
380

###

reported_endpoint: pIC50
Answer as the number alone; pIC50 is minus log10 of concentration in mol/L.

Report pIC50 on UniProt:P04150 for this entry: O=C(O)CCc1cc(Br)c(OCc2cccc(Br)c2)c(Br)c1
Sequence (P04150 whole entry): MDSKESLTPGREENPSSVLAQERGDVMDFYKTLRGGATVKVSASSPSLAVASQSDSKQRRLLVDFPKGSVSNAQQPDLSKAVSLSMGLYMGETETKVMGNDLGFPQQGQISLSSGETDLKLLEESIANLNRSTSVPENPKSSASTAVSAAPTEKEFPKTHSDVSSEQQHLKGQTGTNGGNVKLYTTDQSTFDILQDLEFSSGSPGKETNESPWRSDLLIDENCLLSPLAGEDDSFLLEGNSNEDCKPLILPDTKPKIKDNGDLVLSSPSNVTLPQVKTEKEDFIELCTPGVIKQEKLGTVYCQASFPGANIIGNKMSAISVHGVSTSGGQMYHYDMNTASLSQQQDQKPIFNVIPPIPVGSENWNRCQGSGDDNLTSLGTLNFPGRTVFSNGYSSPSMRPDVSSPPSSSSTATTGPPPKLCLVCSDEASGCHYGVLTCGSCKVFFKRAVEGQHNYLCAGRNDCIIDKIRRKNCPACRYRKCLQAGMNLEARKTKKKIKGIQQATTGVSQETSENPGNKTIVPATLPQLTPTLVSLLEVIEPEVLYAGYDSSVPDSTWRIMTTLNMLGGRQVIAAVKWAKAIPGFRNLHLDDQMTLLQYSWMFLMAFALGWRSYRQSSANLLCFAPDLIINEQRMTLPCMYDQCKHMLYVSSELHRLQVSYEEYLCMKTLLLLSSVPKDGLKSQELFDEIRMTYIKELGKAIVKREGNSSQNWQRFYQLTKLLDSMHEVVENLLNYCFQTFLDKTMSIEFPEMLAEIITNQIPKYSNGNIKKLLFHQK
4.85
